Test system: TNF-α production from rat whole blood cells stimulated with LPS
ASSAY TEXT: TNF-α production-suppressing activity in LPS-stimulated rat whole blood (ELISA)
Format: cell-based
CONDITION PARAMETERS: 37° C. for 5 hours, monomaleate
EXPERIMENTAL READOUT: IC50 (µM)

- COc1ccc(C2=NN(Cc3ccc(CN4CCOCC4)cc3)C(=O)C3CC=CCC23)cc1OC (single isomer, unassigned) [Example 2-2, monomaleate]: 0.0011

###

Listed compounds paired with reported IC50
EXPERIMENTAL SYSTEM: human recombinant PDE4D (Homo sapiens, UniProt Q08499)
Construct: purchased ABNOVA H00005144-P01
Sequence (Q08499 whole entry): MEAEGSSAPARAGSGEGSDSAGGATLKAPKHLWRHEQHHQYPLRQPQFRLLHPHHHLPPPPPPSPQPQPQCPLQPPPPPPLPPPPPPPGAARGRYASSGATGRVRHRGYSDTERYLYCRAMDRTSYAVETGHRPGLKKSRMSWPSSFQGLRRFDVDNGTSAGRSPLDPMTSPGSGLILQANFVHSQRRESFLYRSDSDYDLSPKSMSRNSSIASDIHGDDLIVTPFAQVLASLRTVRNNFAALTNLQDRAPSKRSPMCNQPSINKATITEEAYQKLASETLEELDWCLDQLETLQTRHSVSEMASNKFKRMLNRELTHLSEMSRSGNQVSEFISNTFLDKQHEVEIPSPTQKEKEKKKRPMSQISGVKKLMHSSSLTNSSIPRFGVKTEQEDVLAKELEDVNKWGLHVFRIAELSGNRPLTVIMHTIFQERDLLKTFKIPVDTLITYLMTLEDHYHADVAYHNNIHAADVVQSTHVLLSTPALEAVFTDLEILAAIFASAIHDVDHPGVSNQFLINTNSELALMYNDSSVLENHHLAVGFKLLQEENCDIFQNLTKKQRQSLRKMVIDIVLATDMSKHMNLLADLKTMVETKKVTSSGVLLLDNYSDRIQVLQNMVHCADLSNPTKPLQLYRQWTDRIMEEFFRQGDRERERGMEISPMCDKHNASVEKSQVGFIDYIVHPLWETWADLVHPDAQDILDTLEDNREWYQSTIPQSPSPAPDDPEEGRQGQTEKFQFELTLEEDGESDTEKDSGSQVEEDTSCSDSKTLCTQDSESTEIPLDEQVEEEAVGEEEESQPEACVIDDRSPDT
ASSAY TEXT: PDE4 inhibitory activity (cAMP hydrolysis, HitHunter cAMP II chemiluminescent kit)
Format: biochemical
CONDITION PARAMETERS: 5 ng human recombinant PDE4D, 1 pmol cAMP, 30° C. for 30 minutes
EXPERIMENTAL READOUT: IC50 (µM)

• COc1ccc(C2=NN(Cc3ccc(Cn4ccnc4)cc3)C(=O)[C@H]3CC=CC[C@@H]23)cc1OC (relative stereo) [Example 9] = 0.025
• COc1ccc(C2=NN(Cc3ccc(CN4CCOCC4)cc3)C(=O)[C@H]3CCCC[C@@H]23)cc1OC (relative stereo) [Example 13] = 0.005
• COc1ccc(C2=NN(Cc3ccc(CN4CCOCC4)cc3)C(=O)C3CC=CCC23)cc1OC (single isomer, unassigned) [Example 2-2, monomaleate] = 0.00079

###

EXPERIMENTAL SYSTEM: human recombinant PDE4D (Homo sapiens)
Construct: purchased ABNOVA H00005144-P01
ASSAY TEXT: PDE4 inhibitory activity (cAMP hydrolysis, HitHunter cAMP II chemiluminescent kit)
Format: biochemical
CONDITION PARAMETERS: 5 ng human recombinant PDE4D, 1 pmol cAMP, 30° C. for 30 minutes
EXPERIMENTAL READOUT: IC50 (µM)

* COc1ccc(C2=NN(Cc3cccc(CN4CCOCC4)c3)C(=O)[C@H]3CC=CC[C@@H]23)cc1OC (relative stereo) | 0.02
* COc1ccc(C2=NN(Cc3ccc(CN4CCOCC4)cc3)C(=O)C3CC=CCC23)cc1OC (stereo not shown) [Example 1] | 0.063
* COc1ccc(C2=NN(Cc3ccc(CN4CCC(=O)CC4)cc3)C(=O)[C@H]3CC=CC[C@@H]23)cc1OC (relative stereo) | 0.0013
* COc1ccc(C2=NN(Cc3ccc(CN4CCC5(CC4)OCCO5)cc3)C(=O)[C@H]3CC=CC[C@@H]23)cc1OC (relative stereo) | 0.02

###

System: TNF-α production from rat whole blood cells stimulated with LPS
ASSAY TEXT: TNF-α production-suppressing activity in LPS-stimulated rat whole blood (ELISA)
Assay type: cell-based
CONDITION PARAMETERS: Whole blood cell, 37° C. for 5 hours
Listed compounds paired with reported IC50
EXPERIMENTAL READOUT: IC50 (µM)

- COc1ccc(C2=NN(Cc3cccc(CN4CCOCC4)c3)C(=O)[C@H]3CC=CC[C@@H]23)cc1OC (relative stereo): 0.107
- COc1ccc(C2=NN(Cc3ccc(C(=O)O)cc3)C(=O)[C@H]3CC=CC[C@@H]23)cc1OC (relative stereo) [control compound A, reference compound]: 133
- COc1ccc(C2=NN(Cc3ccc(CN4CCOCC4)cc3)C(=O)C3CC=CCC23)cc1OC (single isomer, unassigned): 0.0024
- COc1ccc(C2=NN(Cc3ccc(CN4CCNC(=O)C4)cc3)C(=O)[C@H]3CC=CC[C@@H]23)cc1OC (relative stereo): 0.0049
- COc1ccc(C2=NN(Cc3cccc(CN4CCNC(=O)C4)c3)C(=O)[C@H]3CC=CC[C@@H]23)cc1OC (relative stereo): 0.019
- COc1ccc(C2=NN(Cc3ccc(N4CCOCC4)cc3)C(=O)[C@H]3CC=CC[C@@H]23)cc1OC (relative stereo): 0.012
- COc1ccc(C2=NN(Cc3ccc(CN4CCOCC4)cc3)C(=O)[C@H]3CCCC[C@@H]23)cc1OC (relative stereo): 0.059
- COc1ccc(C2=NN(Cc3ccc(C[N+]4([O-])CCOCC4)cc3)C(=O)[C@H]3CC=CC[C@@H]23)cc1OC (relative stereo): 0.012
- COc1ccc(C2=NN(Cc3ccc(CN4CCC5(CC4)OCCO5)cc3)C(=O)[C@H]3CC=CC[C@@H]23)cc1OC (relative stereo): 0.199

FYI, the data here is from patent US20090042879A1.
